assay: Extrapolated human dosimetry (OLINDA/EXM, ICRP-89 phantoms); settings: ICRP 89 Adult Female, extrapolated
readout-label: Absorbed dose (AD average) Uterus (mGy/Mbq)

>>> quantitative_readout("N#C[C@@H]1CC(F)(F)CN1C(=O)CNC(=O)c1ccnc2ccc(OCCCCNC(=O)CC[C@H](NC(=O)CCC(C(=O)O)N3CCN(CC(=O)[O-])CCN(CC(=O)[O-])CCN(CC(=O)[O-])CC3)C(=O)NCCCCOc3ccc4nccc(C(=O)NCC(=O)N5CC(F)(F)C[C@H]5C#N)c4c3)cc12.[161Tb+3] (stereo partly shown) [[^161Tb]Tb-DOTAGA.Glu.(FAPI)2]")
"4.14E-02"
>>> quantitative_readout("N#C[C@@H]1CC(F)(F)CN1C(=O)CNC(=O)c1ccnc2ccc(OCCCCNC(=O)CC[C@H](NC(=O)CCC(C(=O)O)N3CCN(CC(=O)[O-])CCN(CC(=O)[O-])CCN(CC(=O)[O-])CC3)C(=O)NCCCCOc3ccc4nccc(C(=O)NCC(=O)N5CC(F)(F)C[C@H]5C#N)c4c3)cc12.[177Lu+3] (stereo partly shown) [[^177Lu]Lu-DOTAGA.Glu.(FAPI)2]")
"3.10E-02"
>>> quantitative_readout("N#C[C@@H]1CC(F)(F)CN1C(=O)CNC(=O)c1ccnc2ccc(OCCCCNC(=O)CC[C@H](NC(=O)CN3CCN(CC(=O)[O-])CCN(CC(=O)[O-])CCN(CC(=O)[O-])CC3)C(=O)NCCCCOc3ccc4nccc(C(=O)NCC(=O)N5CC(F)(F)C[C@H]5C#N)c4c3)cc12.[177Lu+3] [[^177Lu]Lu-DO3A.Glu.(FAPI)2]")
"2.76E-02"
>>> quantitative_readout("N#C[C@@H]1CC(F)(F)CN1C(=O)CNC(=O)c1ccnc2ccc(OCCCCNC(=O)CC[C@H](NC(=O)CN3CCN(CC(=O)[O-])CCN(CC(=O)[O-])CCN(CC(=O)[O-])CC3)C(=O)NCCCCOc3ccc4nccc(C(=O)NCC(=O)N5CC(F)(F)C[C@H]5C#N)c4c3)cc12.[161Tb+3] [[^161Tb]Tb-DO3A.Glu.(FAPI)2]")
"3.73E-02"
